Below, each entry is listed alongside its reported normalized intracellular growth.
# Test system: Salmonella enterica serovar Typhimurium SL1344
# method-description: normalized intracellular growth (luminescence, IQM-normalized) in RAW264.7 macrophages (fraction of plate interquartile mean); higher = more bacterial growth (less inhibition)
# settings: 10 µM, time point: T3 (3 h)
The full ranking holds about 1,600 compounds; the median of “normalized intracellular growth (luminescence, IQM-normalized) in RAW264.7 macrophages” is about 1, and the lowest 2% start at about 0.43. Only a selection was taken, and the lowest values are over-represented in it overall.
endpoint-name: normalized intracellular growth

{"columns": ["smiles-data", "endpoint-name", "meas-value"],
 "data": [
  ["C#C[C@]1(OC(C)=O)CC[C@H]2[C@@H]3CCC4=CC(=O)CC[C@@H]4[C@H]3CC[C@@]21C", "normalized intracellular growth", 1.03],
  ["COc1cc([C@@H]2c3cc4c(cc3[C@@H](O[C@@H]3O[C@@H]5CO[C@@H](c6cccs6)O[C@H]5[C@H](O)[C@H]3O)[C@H]3COC(=O)[C@H]23)OCO4)cc(OC)c1O", "normalized intracellular growth", 1.1],
  ["CCC(=O)Oc1ccc2c(c1)CC[C@@H]1[C@@H]2CC[C@]2(C)[C@@H](OC(=O)CC)CC[C@@H]12", "normalized intracellular growth", 0.977],
  ["CCCCCCCC/C=C\\CCCCCCCC(=O)O.NCCO", "normalized intracellular growth", 1.05]
]}

* * *

# System: Salmonella enterica serovar Typhimurium SL1344
# method-description: normalized intracellular growth (luminescence, IQM-normalized) in RAW264.7 macrophages (fraction of plate interquartile mean); higher = more bacterial growth (less inhibition)
# settings: 10 µM, time point: Tfinal (~6 h)
Whole data set: some 1,600 compounds, median “normalized intracellular growth (luminescence, IQM-normalized) in RAW264.7 macrophages” near 1, cut for the lowest 2% near 0.43. Many of the other results were omitted from the sample, so the lowest values are more common in it than they were.
normalized intracellular growth values, listed per item

{"columns": ["molecule", "experimental-target", "normalized intracellular growth"],
 "data": [
  ["COc1c(N2C[C@@H]3CCCN[C@@H]3C2)c(F)cc2c(=O)c(C(=O)O)cn(C3CC3)c12", "Salmonella enterica serovar Typhimurium SL1344", 0.00827],
  ["Nc1ccc(S(N)(=O)=O)cc1", "Salmonella enterica serovar Typhimurium SL1344", 1.07],
  ["CCC(=O)O[C@H]1[C@H](O[C@@H]2[C@@H](C)[C@H](O[C@H]3C[C@@](C)(OC)[C@@H](O)[C@H](C)O3)[C@@H](C)C(=O)O[C@H](CC)[C@@](C)(O)[C@H](O)[C@@H](C)C(=O)[C@H](C)C[C@@]2(C)O)O[C@H](C)C[C@@H]1N(C)C", "Salmonella enterica serovar Typhimurium SL1344", 0.901],
  ["CC1COc2c(N3CCN(C)CC3)c(F)cc3c(=O)c(C(=O)O)cn1c23 (centres undefined)", "Salmonella enterica serovar Typhimurium SL1344", 0.134],
  ["CN1CCN(c2c(F)cc3c(=O)c(C(=O)O)cn4c3c2SCC4)CC1", "Salmonella enterica serovar Typhimurium SL1344", 0.095],
  ["CCn1cc(C(=O)O)c(=O)c2ccc(C)nc21", "Salmonella enterica serovar Typhimurium SL1344", 0.881],
  ["NC[C@H]1O[C@H](O[C@H]2[C@H](O)[C@@H](O[C@H]3O[C@H](CO)[C@@H](O)[C@H](N)[C@H]3O)[C@H](N)C[C@@H]2N)[C@H](N)[C@@H](O)[C@@H]1O", "Salmonella enterica serovar Typhimurium SL1344", 0.554],
  ["O=C(NCCCN1CCOCC1)c1ccc(Cl)cc1", "Salmonella enterica serovar Typhimurium SL1344", 1.35],
  ["CCn1cc(C(=O)O)c(=O)c2cc(F)c(N3CCNCC3)cc21", "Salmonella enterica serovar Typhimurium SL1344", 1.19],
  ["CN(C)c1ccc(O)c2c1C[C@H]1C[C@H]3[C@H](N(C)C)C(O)=C(C(N)=O)C(=O)[C@@]3(O)C(O)=C1C2=O", "Salmonella enterica serovar Typhimurium SL1344", 0.33],
  ["Cc1ncc([N+](=O)[O-])n1C", "Salmonella enterica serovar Typhimurium SL1344", 0.98],
  ["CCn1cc(C(=O)O)c(=O)c2cc(F)c(N3CCN(C)CC3)cc21", "Salmonella enterica serovar Typhimurium SL1344", 0.012],
  ["CC(=O)N[C@@H]([C@@H](O)[C@H](O)[C@H](O)CO)[C@@H](O)CC(=O)C(=O)O", "Salmonella enterica serovar Typhimurium SL1344", 1.06],
  ["O=C(O)c1cn(C2CC2)c2cc(N3CCNCC3)c(F)cc2c1=O", "Salmonella enterica serovar Typhimurium SL1344", 0.0127],
  ["NS(=O)(=O)c1ccc(C(=O)O)cc1", "Salmonella enterica serovar Typhimurium SL1344", 0.964],
  ["COc1cc(Cc2cnc(N)nc2N)cc(OC)c1OC", "Salmonella enterica serovar Typhimurium SL1344", 0.155],
  ["CC[C@H]1OC(=O)[C@H](C)C(=O)[C@H](C)[C@@H](O[C@@H]2O[C@H](C)C[C@H](N(C)C)[C@H]2O)[C@](C)(OC)C[C@@H](C)C(=O)[C@H](C)[C@H]2N(CCCCn3cnc(-c4cccnc4)c3)C(=O)O[C@]12C", "Salmonella enterica serovar Typhimurium SL1344", 0.0132],
  ["CN(C)[C@@H]1C(O)=C(C(N)=O)C(=O)[C@@]2(O)C(O)=C3C(=O)c4c(O)cccc4[C@@](C)(O)[C@H]3C[C@@H]12", "Salmonella enterica serovar Typhimurium SL1344", 0.209],
  ["CC[C@H]1OC(=O)[C@H](C)[C@@H](O[C@H]2C[C@@](C)(OC)[C@@H](O)[C@H](C)O2)[C@H](C)[C@@H](O[C@@H]2O[C@H](C)C[C@H](N(C)C)[C@H]2O)[C@](C)(OC)C[C@@H](C)C(=O)[C@H](C)[C@@H](O)[C@]1(C)O", "Salmonella enterica serovar Typhimurium SL1344", 0.976],
  ["C[C@H]1COc2c(N3CCN(C)CC3)c(F)cc3c(=O)c(C(=O)O)cn1c23", "Salmonella enterica serovar Typhimurium SL1344", 0.00765],
  ["CCn1cc(C(=O)O)c(=O)c2cnc(N3CCNCC3)nc21", "Salmonella enterica serovar Typhimurium SL1344", 0.533],
  ["C[C@H]1COc2c(C3(N)CC3)c(F)cc3c(=O)c(C(=O)O)cn1c23", "Salmonella enterica serovar Typhimurium SL1344", 0.00812],
  ["CCC(=O)Oc1ccc2c(c1)CC[C@@H]1[C@@H]2CC[C@]2(C)[C@@H](OC(=O)CC)CC[C@@H]12", "Salmonella enterica serovar Typhimurium SL1344", 0.934],
  ["CCOc1ccc(NC(=O)CC(C)O)cc1 (centres undefined)", "Salmonella enterica serovar Typhimurium SL1344", 1.2],
  ["CO[C@H]1C[C@H](O[C@@H]2/C(C)=C/C[C@@H]3C[C@@H](C[C@]4(CC[C@H](C)[C@@H](C5CCCCC5)O4)O3)OC(=O)[C@@H]3C=C(C)/C(=N/O)[C@H]4OC/C(=C\\C=C\\[C@@H]2C)[C@]43O)O[C@@H](C)[C@@H]1O", "Salmonella enterica serovar Typhimurium SL1344", 1.16],
  ["CCN(CC)CCNC(=O)c1ccc(NC(C)=O)cc1", "Salmonella enterica serovar Typhimurium SL1344", 1],
  ["CCCCCCCCCCC[C@@H](C[C@@H]1OC(=O)[C@H]1CCCCCC)OC(=O)[C@H](CC(C)C)NC=O", "Salmonella enterica serovar Typhimurium SL1344", 1.21],
  ["CO/N=C1\\CN(c2nc3c(cc2F)c(=O)c(C(=O)O)cn3C2CC2)CC1CN (centres undefined)", "Salmonella enterica serovar Typhimurium SL1344", 1.15],
  ["Nc1nccs1", "Salmonella enterica serovar Typhimurium SL1344", 0.911],
  ["C[C@H]1c2cccc(O)c2C(=O)C2=C(O)[C@]3(O)C(=O)C(C(N)=O)=C(O)[C@@H](N(C)C)[C@@H]3[C@@H](O)[C@@H]21", "Salmonella enterica serovar Typhimurium SL1344", 0.173],
  ["O=S(=O)(O)CCCS(=O)(=O)O", "Salmonella enterica serovar Typhimurium SL1344", 0.9],
  ["CN(C)[C@@H]1C(O)=C(C(=O)NCN2CCCC2)C(=O)[C@@]2(O)C(O)=C3C(=O)c4c(O)cccc4[C@@](C)(O)[C@H]3C[C@@H]12", "Salmonella enterica serovar Typhimurium SL1344", 0.683],
  ["NCC(=O)CCC(=O)O", "Salmonella enterica serovar Typhimurium SL1344", 1.02],
  ["C[C@H]1[C@H](OC(=O)CCC(=O)O)O[C@@H]2O[C@@]3(C)CC[C@H]4[C@H](C)CC[C@@H]1[C@@]24OO3", "Salmonella enterica serovar Typhimurium SL1344", 0.869]
]}
